test system: Rattus norvegicus; assay: Induction of convulsion in rat at 120 mg/kg, sc; type: organism-based; set-up: dose 120 mg/kg, route subcutaneous; settings: in vivo
outcome_measure: Activity

// worked examples, Activity included
| compound | Activity |
| --- | --- |
| COC(=O)[C@@H]1C[C@H]2CC[C@H]([C@H]1c1cccs1)N2C (racemic) | Toxic |
| CC(C)OC(=O)[C@H]1C[C@H]2CC[C@H]([C@H]1c1ccccc1)N2C (racemic) | Toxic |
| COC(=O)[C@H]1C[C@H]2CC[C@H]([C@H]1Cc1ccccc1)N2C (racemic) | Toxic |
| COC(=O)[C@@H]1C[C@H]2CC[C@H]([C@H]1Cc1ccccc1)N2C (racemic) | Toxic |

Consider now this further compound.
Exam item: # return Activity of COC(=O)[C@H]1C[C@H]2CCC([C@H]1c1ccccc1)N2C (mixture of isomers) (system: Rattus norvegicus)
Marked response: Toxic
